Just for reference, ChEMBL document CHEMBL1124914 is where these values come from.

# inhibition listing for each entry below
TESTED_SYSTEM: Renin (Homo sapiens) (UniProt P00797)
Sequence (P00797 whole entry): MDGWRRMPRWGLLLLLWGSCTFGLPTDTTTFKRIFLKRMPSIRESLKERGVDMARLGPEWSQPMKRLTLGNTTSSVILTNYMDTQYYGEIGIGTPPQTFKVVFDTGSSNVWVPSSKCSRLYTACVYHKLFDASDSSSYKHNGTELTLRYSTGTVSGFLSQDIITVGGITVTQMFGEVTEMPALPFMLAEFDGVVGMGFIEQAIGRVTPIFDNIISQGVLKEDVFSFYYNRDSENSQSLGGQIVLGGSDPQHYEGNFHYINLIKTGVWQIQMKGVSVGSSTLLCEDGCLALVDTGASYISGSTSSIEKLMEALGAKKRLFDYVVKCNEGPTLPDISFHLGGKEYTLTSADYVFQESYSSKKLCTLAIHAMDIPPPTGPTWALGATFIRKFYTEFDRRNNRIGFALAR
ASSAY_DETAILS: Tested for inhibition against human renin at a concentration of 100 uM

{"columns": ["COMPOUND", "inhibition (%)"],
 "data": [
  ["COC(=O)[C@H](CC(C)C)NC(=O)C(Cc1c[nH]c2ccccc12)NC(=O)[C@H](CCCCN)N1C(=O)CSC[C@@H](NC(=O)OCc2ccccc2)C(=O)N[C@H](Cc2ccccc2)C1=O (stereo in doubt)", 53],
  ["CC(C)(C)OC(=O)N[C@@H]1CCC(=O)N([C@@H](CCCCN)C(=O)NCCc2c[nH]c3ccccc23)C(=O)[C@@H](Cc2ccccc2)NC1=O", 79],
  ["CC(=O)NCSC[C@H]1NC(=O)[C@H](Cc2ccccc2)NC(=O)[C@@H]2CCCN2C(=O)[C@@H](CC(C)C)NC(=O)C(Cc2c[nH]c3ccccc23)NC1=O (stereo in doubt)", 38],
  ["COC(=O)[C@H](CCSC)NC(=O)[C@H](CC(C)C)NC(=O)C(Cc1c[nH]c2ccccc12)NC(=O)[C@H](CS)NC(=O)[C@H](Cc1ccccc1)NC(=O)[C@H](CS)NC(=O)OC(C)(C)C (stereo in doubt)", 22],
  ["CC(C)CCNC(=O)C(Cc1c[nH]c2ccccc12)NC(=O)[C@H](CCCCN)N1C(=O)CC[C@@H](NC(C)C)C(=O)N[C@H](Cc2ccccc2)C1=O (stereo in doubt)", 93]
]}
